B1: TPR 5TU (parent)
chain: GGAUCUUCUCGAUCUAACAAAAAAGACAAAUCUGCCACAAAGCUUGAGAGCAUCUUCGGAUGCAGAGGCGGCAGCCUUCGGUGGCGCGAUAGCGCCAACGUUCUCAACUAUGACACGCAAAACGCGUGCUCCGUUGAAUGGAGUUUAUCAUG

Variants of: B1
Test: polymerase ribozyme fitness, log enrichment relative to wild type (log ratio); higher = more active; in vitro selection for triplet polymerase activity
This sample holds only a part of the variants without activity.

[
  {
    "mutation-list": "C10G A20C U33G C93A G94U C96G C114U U145A",
    "polymerase ribozyme fitness (log ratio)": "≤ -4.2"
  },
  {
    "mutation-list": "C27U A47U A49C G117A",
    "polymerase ribozyme fitness (log ratio)": "≤ -4.2"
  },
  {
    "mutation-list": "C5G A30U G59A C87G C108U U148A",
    "polymerase ribozyme fitness (log ratio)": "≤ -4.2"
  },
  {
    "mutation-list": "A60C C76U A89G C114U G141U",
    "polymerase ribozyme fitness (log ratio)": "≤ -4.2"
  },
  {
    "mutation-list": "C10U G25U C32A C76A G83U G88C C93G",
    "polymerase ribozyme fitness (log ratio)": "≤ -4.2"
  },
  {
    "mutation-list": "A30U A49G",
    "polymerase ribozyme fitness (log ratio)": "≤ -4.2"
  },
  {
    "mutation-list": "C5U C10G C35U C75G U102G A107U C118A",
    "polymerase ribozyme fitness (log ratio)": "≤ -4.2"
  },
  {
    "mutation-list": "C10G C85U",
    "polymerase ribozyme fitness (log ratio)": -3
  },
  {
    "mutation-list": "U4G U15G A30G A41U G46U C69G C76U C93G G143C",
    "polymerase ribozyme fitness (log ratio)": "≤ -4.2"
  },
  {
    "mutation-list": "U9G A41U U53A C96A U102A A150U",
    "polymerase ribozyme fitness (log ratio)": "≤ -4.2"
  },
  {
    "mutation-list": "A22U A73G U82A",
    "polymerase ribozyme fitness (log ratio)": 1.72
  },
  {
    "mutation-list": "A3U U6G C35G G50U U78G C79U G141U",
    "polymerase ribozyme fitness (log ratio)": "≤ -4.2"
  },
  {
    "mutation-list": "A3U U45A C96A",
    "polymerase ribozyme fitness (log ratio)": -3.51
  },
  {
    "mutation-list": "C57G C96G U104G",
    "polymerase ribozyme fitness (log ratio)": -4.16
  },
  {
    "mutation-list": "A28G A29U",
    "polymerase ribozyme fitness (log ratio)": -3.79
  },
  {
    "mutation-list": "A26U C87G",
    "polymerase ribozyme fitness (log ratio)": "≤ -4.2"
  },
  {
    "mutation-list": "A107U G141C",
    "polymerase ribozyme fitness (log ratio)": -3.87
  },
  {
    "mutation-list": "C10U A39G C54G C63A G70C C93U G141A",
    "polymerase ribozyme fitness (log ratio)": "≤ -4.2"
  },
  {
    "mutation-list": "A24U G48A A49G G50A U55A C123A G136C",
    "polymerase ribozyme fitness (log ratio)": "≤ -4.2"
  },
  {
    "mutation-list": "U55A G84U A113C",
    "polymerase ribozyme fitness (log ratio)": -3.62
  },
  {
    "mutation-list": "A39G C103G U144A",
    "polymerase ribozyme fitness (log ratio)": "≤ -4.2"
  }
]
